assay.text: Pharmacokinetics of SAR405838 (whole-blood concentrations) in combination
Format: in vivo, human
run.parameters: human, whole blood, oral, DL2a SAR405838 200 mg QD + pimasertib 60 mg QD; C2D1; read-out: SAR405838 AUC0–24, mean ± SD
endpoint.label: AUC(0-t)

[Q] Return value of AUC(0-t) for input `CC(C)(C)C[C@@H]1N[C@@H](C(=O)N[C@H]2CC[C@H](O)CC2)[C@H](c2cccc(Cl)c2F)[C@]12C(=O)Nc1cc(Cl)ccc12` , no commentary.
[A] 15600 ng·h/mL

* * *

assay.text: Pharmacokinetics of SAR405838 (whole-blood concentrations) in combination
Format: in vivo, human
run.parameters: human, whole blood, oral, DL2b SAR405838 300 mg QD + pimasertib 45 mg BID; C2D1; read-out: SAR405838 AUC0–24, mean ± SD
endpoint.label: AUC(0-t) (ng·h/mL)
Kindly answer with a numeric value in ng·h/mL, unit omitted.

[Q] Return value of AUC(0-t) for input CC(C)(C)C[C@@H]1N[C@@H](C(=O)N[C@H]2CC[C@H](O)CC2)[C@H](c2cccc(Cl)c2F)[C@]12C(=O)Nc1cc(Cl)ccc12 [SAR405838] , no commentary.
[A] 15000
